- protocol.description: Partition coefficient (logP)
- Format: physicochemical
- assay.conditions: octanol/water
Catalogue of logP readings, one per entry.
Lab note: write the figure by itself, no unit.

Past entries and their recorded results:
                                   molecule  number
0  CCCC(=O)O[C@@H]1[C@@H](C)[C@@]2(O)[C@@H](C=C(CO)C[C@]3(O)C(=O)C(C)=C[C@@H]23)[C@@H]2C(C)(C)[C@]12OC(=O)CCC     3.4
1        CC(C)CC(=O)OC[C@H](CO)OC(=O)CC(C)C    2.16

Q: # query: logP of entry CC(C)CC(=O)OC[C@H](CO)OC(=O)CC(C(C)C)C(C)C
Ans: 3.97

Q: Give the measured logP of CCCCCCCC/C=C/CCCCCCCC(=O)OC[C@H](CO)OC(C)=O .
Ans: 7

Q: Could you tell me which logP is on file for CC(C)=CC(=O)OC[C@H](CO)OC(=O)C=C(C)C ?
Ans: 1.99

Q: // logP lookup, key: CC(C)=CC(=O)O[C@@H](CO)COC(=O)CC(C)C
Ans: 2.07

Q: # get_value(readout='logP', item= CC(C)=CC(=O)O[C@@H](CO)COC(=O)CC(C(C)C)C(C)C )
Ans: 3.88

Q: Look up logP: CC(C)C(=CC(=O)OC[C@H](CO)OC(=O)CC(C(C)C)C(C)C)C(C)C
Ans: 5.71

Q: What logP value was documented for this molecule, CC(C)=CC(=O)OC[C@H](CO)OC(=O)CC(C(C)C)C(C)C ?
Ans: 3.88

Q: Looking for the measured logP of CC(=O)O[C@@]12C[C@@H](C)[C@@]3(O)[C@@H](C=C(CO)C[C@]4(O)C(=O)C(C)=C[C@@H]34)[C@@H]1C2(C)C [PROSTRATIN] , can you help?
Ans: 1.9

====

Each record here notes measured logP.
- protocol.description: Partition coefficient (logP)
- Type: physicochemical
- assay.conditions: octanol/water
Please state the value as a number alone, without comment.

                              smiles_string  assay_metric  number
0  CC(C)CC(=O)O[C@@H](CO)COC(=O)C=C(C(C)C)C(C)C          logP    3.89
1  CC(C)CC(=O)OC[C@H](CO)OC(=O)C=C(C(C)C)C(C)C          logP    3.89
2  CC(C)CC(=O)O[C@@H](CO)COC(=O)CC(C(C)C)C(C)C          logP    3.97
3  CC(C)=CC(=O)O[C@@H](CO)COC(=O)C=C(C(C)C)C(C)C          logP     3.8
4  CC(C)=CC(=O)OC[C@H](CO)OC(=O)C=C(C(C)C)C(C)C          logP     3.8

Q: // query logP value for entry CC(C)C(=CC(=O)OC[C@H](CO)OC(=O)C=C(C(C)C)C(C)C)C(C)C
Ans: 5.62

====

- protocol.description: Partition coefficient (logP)
- Format: physicochemical
- assay.conditions: octanol/water
Measured logP, listed per entry.
Lab note: jot down the number only; don't add units.

Below, each entry is followed by its recorded logP result.
>>> df
                              smiles_string  assay_metric  number
0  CC(C)C(CC(=O)OC[C@H](CO)OC(=O)CC(C(C)C)C(C)C)C(C)C          logP    5.79
1       CC(C)=CC(=O)OC[C@H](CO)OC(=O)CC(C)C          logP    2.07
2      CCCCCCCC(=O)OC[C@H](CO)OC(=O)CCCCCCC          logP     5.3

Q: Param item = CC(C)C(=CC(=O)O[C@@H](CO)COC(=O)CC(C(C)C)C(C)C)C(C)C ; retrieve measured logP.
Ans: 5.71
